test system: RAW-Dual (murine macrophage reporter line); assay: NF-kB reporter (SEAP) activity fold change vs agonist alone; higher = enhanced NF-kB activity; conditions: modulator concentration 10 µM; agonist: MPLA […]
# NF-kB reporter per entry
endpoint_name: NF-kB reporter

compound: CCOC(=O)N(CC(=O)OC)CP(=O)(O)C(Cc1ccccc1)C(=O)O (configuration not stated)
observed_result: 0.969

compound: Cl.OC(CCN1CCCCC1)(c1ccccc1)C1CCCCC1 (configuration not stated)
observed_result: 1.11

compound: O=C1c2ccccc2C(=O)C1c1ccccn1
observed_result: 0.993

compound: Oc1ccc(C=NCc2ccccc2)cc1
observed_result: 1.04

compound: O=S(=O)(c1ccc(F)cc1)N1CCC(c2nc3ccccc3[nH]2)CC1
observed_result: 1.03

compound: CNC1CCC(c2ccc(Cl)c(Cl)c2)c2ccccc21.Cl (configuration not stated)
observed_result: 1.11

compound: [O-][n+]1cccc(CO)c1
observed_result: 3.03

compound: O=C(Nc1ccc([N+](=O)[O-])cc1)c1cc(Cl)ccc1O
observed_result: 0.841

compound: CC(=O)NC(c1ccccc1)c1c(OC(=O)COc2ccccc2)ccc2ccccc12 (configuration not stated)
observed_result: 0.714

compound: CCC(=O)Nc1ccc(S(=O)(=O)N2CCC(Oc3ncnc(CC)c3F)C2)c(C)c1 (configuration not stated)
observed_result: 1.2

compound: Cl.NCCCC[C@H](N)C(=O)O
observed_result: 1.01

compound: Cc1cccc(C(=O)Nc2cccc([N+](=O)[O-])c2C)c1
observed_result: 0.86

compound: CC1=C(C(=O)OC(C)C)C(c2cccc([N+](=O)[O-])c2)C(C(=O)OC2CN(C(c3ccccc3)c3ccccc3)C2)=C(N)N1 (configuration not stated)
observed_result: 2.56

compound: Br.CCCc1cc(-c2nc(-c3ccc(C)cc3)cs2)ccn1
observed_result: 1.08

compound: CCOC(=O)C1=C(C)OC(N)=C(C#N)C1c1ccc(O)c(OCC)c1 (configuration not stated)
observed_result: 1.07

compound: CCc1ccccc1N(CC(=O)Nc1ccc(Cl)cc1C)S(C)(=O)=O
observed_result: 0.893

compound: CS(=O)(=O)O.N#CC1(c2ccc(NC(=O)c3cccnc3NCc3ccncc3)cc2)CCCC1
observed_result: 0.547

compound: CC1CC(=CC=CN(C)C)C(=O)C(=CC=CN(C)C)C1 (configuration not stated)
observed_result: 0.917

compound: CCCC(=O)Nc1ncnc2c1ncn2[C@@H]1O[C@@H]2OP(=O)([O-])OC[C@H]2[C@H]1OC(=O)CCC
observed_result: 1.14

compound: O=C(C=Cc1ccccc1)NC(NC(=S)Nc1cccc(O)c1)C(Cl)(Cl)Cl (configuration not stated)
observed_result: 0.972

compound: N#Cc1c(-n2ncnc2-c2cccc([N+](=O)[O-])c2)sc2c1CCCC2
observed_result: 0.932

compound: C=C1CCC(NS(=O)(=O)c2ccc(-c3coc(C)n3)cc2)CC1
observed_result: 1.14
